Biological target: BuChE from human serum (Homo sapiens)
Construct: 0.1 unit/ml BuChE from human serum; from tissue; host or cells: human serum
Test: Butyrylcholinesterase (BuChE) inhibition, Ellman colorimetric method
Format: biochemical
Experimental: Butyrylcholinesterase (BuChE) Inhibition (from Human Serum) BuChE inhibitory activity was evaluated at 30° C. by the colorimetric method reported by Ellman [Ellman, G. L.; Courtney, K. D.; Andres, B.; Featherstone, R. M. Biochem. Pharmacol. 1961, 7, 88-95]. […] Enzyme activity was determined by measuring the absorbance at 405 nm during 5 minutes with a microplate reader Digiscan 340T. […] The reaction rate was calculated with, at least, triplicate measurements. […]
Give measured IC50 for each item. Keep answers brief.
Numbers only, in nM.

[
  {
    "Smiles String": "O=C(CCCc1c[nH]c2ccccc12)NCCC1CCN(Cc2ccccc2)CC1",
    "Target Entity": "BuChE from human serum (Homo sapiens)",
    "Value Units": "nM",
    "Test Result": 5
  }
]

Dear colleague, could you please provide IC50 for the molecules listed below?
1. O=C(CCc1c[nH]c2ccccc12)NCCC1CCN(Cc2ccccc2)CC1
2. O=C(Cc1c[nH]c2ccc(Br)cc12)NCCC1CCN(Cc2ccccc2)CC1

[0.05, 0.25]

---

target: AChE peripheral site (Homo sapiens); experiment: Propidium competition, fluorescence; type: binding; settings: 5 μM AChE incubated at least 6 hours, 20 μM propidium iodide, 1 mM Tris/HCl pH 8.0
Sequence (P22303 32-614): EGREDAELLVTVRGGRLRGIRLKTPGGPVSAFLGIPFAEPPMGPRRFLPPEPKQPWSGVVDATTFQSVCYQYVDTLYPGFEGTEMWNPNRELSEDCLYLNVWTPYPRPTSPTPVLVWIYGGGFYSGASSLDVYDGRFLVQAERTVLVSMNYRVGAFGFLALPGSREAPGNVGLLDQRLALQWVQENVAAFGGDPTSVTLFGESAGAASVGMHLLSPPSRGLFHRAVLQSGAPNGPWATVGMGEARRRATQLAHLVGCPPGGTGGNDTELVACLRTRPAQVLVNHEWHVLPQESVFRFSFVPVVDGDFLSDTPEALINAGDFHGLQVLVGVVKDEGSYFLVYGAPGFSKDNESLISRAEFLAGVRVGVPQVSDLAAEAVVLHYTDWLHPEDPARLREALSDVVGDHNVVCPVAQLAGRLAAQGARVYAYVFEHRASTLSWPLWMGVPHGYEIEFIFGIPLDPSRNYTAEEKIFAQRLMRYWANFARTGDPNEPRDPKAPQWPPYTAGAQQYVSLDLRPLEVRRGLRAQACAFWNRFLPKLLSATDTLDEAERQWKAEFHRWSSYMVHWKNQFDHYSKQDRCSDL
What Propidium competition was measured for each of the following?
One number for each entry, in µM.

Hi team, please reply with Propidium competition for each item in this list.
1. O=C(CCCc1c[nH]c2ccccc12)NCCC1CCN(Cc2ccccc2)CC1 [Compound 6]
2. O=C(Cc1c[nH]c2ccc(Br)cc12)NCCC1CCN(Cc2ccccc2)CC1 [Compound 4]
3. Cn1cc(CC(=O)NCCC2CCN(Cc3ccccc3)CC2)c2ccccc21 [Compound 2]
4. O=C(Cc1c[nH]c2ccccc12)NCCC1CCN(Cc2ccccc2)CC1 [Compound 1]

100
1
100
1

State the recorded Propidium competition for every item in the following list.
1. O=C(CCc1c[nH]c2ccccc12)NCCC1CCN(Cc2ccccc2)CC1 [Compound 5]
2. Cc1[nH]c2ccccc2c1CC(=O)NCCC1CCN(Cc2ccccc2)CC1 [Compound 3]

1: 100; 2: 100

---

target: BuChE from human serum (Homo sapiens, UniProt P06276); construct: 0.1 unit/ml BuChE from human serum; from tissue; host or cells: human serum; test: Butyrylcholinesterase (BuChE) inhibition, Ellman colorimetric method; type: biochemical
Sequence (P06276 29-602): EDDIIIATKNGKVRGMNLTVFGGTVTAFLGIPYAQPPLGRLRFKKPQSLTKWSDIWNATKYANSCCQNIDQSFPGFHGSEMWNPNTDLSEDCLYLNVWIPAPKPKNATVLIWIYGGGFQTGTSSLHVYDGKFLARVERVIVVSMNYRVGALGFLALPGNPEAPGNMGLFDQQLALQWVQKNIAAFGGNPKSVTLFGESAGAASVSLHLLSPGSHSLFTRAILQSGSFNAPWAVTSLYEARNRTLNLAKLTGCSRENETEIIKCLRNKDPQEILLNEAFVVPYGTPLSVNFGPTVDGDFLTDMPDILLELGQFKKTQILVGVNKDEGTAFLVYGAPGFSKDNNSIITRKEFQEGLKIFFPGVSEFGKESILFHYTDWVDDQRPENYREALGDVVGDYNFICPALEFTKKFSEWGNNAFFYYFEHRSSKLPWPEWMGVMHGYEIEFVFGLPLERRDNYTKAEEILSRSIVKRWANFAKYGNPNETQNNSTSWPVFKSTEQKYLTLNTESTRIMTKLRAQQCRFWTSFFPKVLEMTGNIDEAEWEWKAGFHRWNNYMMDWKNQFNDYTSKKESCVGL
I'd appreciate it if you could supply IC50 values for the items below.
One number for each entry, in nM.

[
  {
    "Smiles String": "Cn1cc(CC(=O)NCCC2CCN(Cc3ccccc3)CC2)c2ccccc21",
    "Target Entity": "BuChE from human serum (Homo sapiens, UniProt P06276)",
    "Value Units": "nM",
    "Test Result": 1
  },
  {
    "Smiles String": "Cc1[nH]c2ccccc2c1CC(=O)NCCC1CCN(Cc2ccccc2)CC1",
    "Target Entity": "BuChE from human serum (Homo sapiens, UniProt P06276)",
    "Value Units": "nM",
    "Test Result": 2
  }
]

Read the next record carefully.
Given `O=C(Cc1c[nH]c2ccccc12)NCCC1CCN(Cc2ccccc2)CC1` , state its recorded IC50.
0.8
